Where these numbers come from: patent US20120214862A1

Test system: human Factor 7 mRNA
PROCEDURE DETAILS: Antisense inhibition of human Factor 7 mRNA in HepB3 cells, lipofectin, 50 nM, real-time RT-PCR
Assay type: cell-based
CONDITION LABEL: Example 6 microwalk, nucleobases 15098 to 15122 of SEQ ID NO: 1; HepB3, lipofectin, 50 nM, ~24 h
Experimental: Antisense oligonucleotides targeted to a Factor 7 nucleic acid were tested for their effects on Factor 7 mRNA in vitro. […] After a treatment period of approximately 24 hours, RNA was isolated from the cells and Factor 7 mRNA levels were measured by real-time RT-PCR, as described herein. Factor 7 mRNA levels were adjusted according to total RNA content as measured by RIBOGREEN®. […]
In the oligonucleotide strings, read from the 5' end, every base follows the letter of its sugar. An asterisk marks phosphorothioate; unmarked linkages are phosphodiester. Other units and linkages are bracketed, terminal groups are in braces. A string of capitals states the bases alone. e = 2'-O-(2-methoxyethyl) (MOE); [5mC] = 5-methylcytosine; d = 2'-deoxy (DNA)
EXPERIMENTAL ENDPOINT: % Inhibition (human Factor 7 mRNA) (%)
Express the result in % but write the number alone.

Reference set (10 entries):
422135 (antisense eA*eG*e[5mC]*eA*e[5mC]*dA*d[5mC]*dA*dT*dG*dG*dA*dG*dT*d[5mC]*eA*eG*e[5mC]*eA*eT) [compound 422135]
53
422212 (antisense eG*eA*e[5mC]*dA*dG*d[5mC]*dA*d[5mC]*dA*d[5mC]*dA*dT*dG*dG*dA*dG*dT*e[5mC]*eA*eG) [compound 422212]
30
422289 (antisense eG*eA*d[5mC]*dA*dG*d[5mC]*dA*d[5mC]*dA*d[5mC]*dA*dT*dG*dG*dA*eG*eT*e[5mC]*eA*eG) [compound 422289]
34
422208 (antisense eG*e[5mC]*eA*d[5mC]*dA*d[5mC]*dA*dT*dG*dG*dA*dG*dT*d[5mC]*dA*dG*d[5mC]*eA*eT*e[5mC]) [compound 422208]
56
422207 (antisense e[5mC]*eA*e[5mC]*dA*d[5mC]*dA*dT*dG*dG*dA*dG*dT*d[5mC]*dA*dG*d[5mC]*dA*eT*e[5mC]*eG) [compound 422207]
41
422284 (antisense e[5mC]*eA*d[5mC]*dA*d[5mC]*dA*dT*dG*dG*dA*dG*dT*d[5mC]*dA*dG*e[5mC]*eA*eT*e[5mC]*eG) [compound 422284]
43
422286 (antisense eA*eG*d[5mC]*dA*d[5mC]*dA*d[5mC]*dA*dT*dG*dG*dA*dG*dT*d[5mC]*eA*eG*e[5mC]*eA*eT) [compound 422286]
53
422285 (antisense eG*e[5mC]*dA*d[5mC]*dA*d[5mC]*dA*dT*dG*dG*dA*dG*dT*d[5mC]*dA*eG*e[5mC]*eA*eT*e[5mC]) [compound 422285]
39
422211 (antisense eA*e[5mC]*eA*dG*d[5mC]*dA*d[5mC]*dA*d[5mC]*dA*dT*dG*dG*dA*dG*dT*d[5mC]*eA*eG*e[5mC]) [compound 422211]
42
422210 (antisense e[5mC]*eA*eG*d[5mC]*dA*d[5mC]*dA*d[5mC]*dA*dT*dG*dG*dA*dG*dT*d[5mC]*dA*eG*e[5mC]*eA) [compound 422210]
25

Next item in the queue.
Fill in reported % Inhibition (human Factor 7 mRNA) for this entry: 422136 (antisense e[5mC]*eA*eG*e[5mC]*eA*d[5mC]*dA*d[5mC]*dA*dT*dG*dG*dA*dG*dT*e[5mC]*eA*eG*e[5mC]*eA) [compound 422136]
57
